Just for reference, ChEMBL document CHEMBL4130504 is where these values come from.

tested on: Rattus norvegicus; test: Ulcerogenicity in albino rat assessed as at 30 umol/kg, po administered daily for 3 successive days in two equal doses at 0 and 12 hrs measured at 6 hrs post last dose by magnifying lens based assay relative to control; format: toxicity, organism-based; conditions: in vivo
measure: Activity (%)
Numbers only, in %.

Please review the following examples before continuing.
{"compound-string": "CS(=O)(=O)c1ccc2c(c1)c1c(n2Cc2ccc(Cl)cc2)CCCC1", "result-value": 4.48}
{"compound-string": "COc1ccc2c(c1)c1c(n2S(=O)(=O)c2ccc(Cl)cc2)CC(C)(C)CC1=O", "result-value": 20.12}
{"compound-string": "COc1ccc2c(c1)c1c(n2Cc2ccc(Cl)cc2)CC(C)(C)CC1=O", "result-value": 11.2}
{"compound-string": "CS(=O)(=O)c1ccc2c(c1)c1c(n2S(=O)(=O)c2ccc(Cl)cc2)CCCC1=O", "result-value": 11.29}

Now turn to the next compound.
Query string: Which Activity is reported with Rattus norvegicus for this entry: `CS(=O)(=O)c1ccc2c(c1)c1c(n2S(=O)(=O)c2ccc(Cl)cc2)CCCC1` ?
Result string: 2.9

---

system: Rattus norvegicus; assay: Ulcerogenicity in albino rat assessed as at 30 umol/kg, po administered daily for 3 successive days in two equal doses at 0 and 12 hrs measured at 6 hrs post last dose by magnifying lens based assay relative to control; format: toxicity, organism-based; settings: in vivo
Class Condition met: Activity at least 10%. Class Condition not met: Activity below 10%.

{"compound-string": "CS(=O)(=O)c1ccc2c(c1)c1c(n2Cc2ccc(Cl)cc2)CCCC1=O", "class-name": "Condition not met"}
{"compound-string": "Cc1ccc(-c2cc(C(F)(F)F)nn2-c2ccc(S(N)(=O)=O)cc2)cc1", "class-name": "Condition not met"}
{"compound-string": "CS(=O)(=O)c1ccc2c(c1)c1c(n2C(=O)c2ccc(Cl)cc2)CCCC1", "class-name": "Condition met"}
{"compound-string": "CS(=O)(=O)c1ccc2c(c1)c1c(n2C(=O)c2ccc(Cl)cc2)CCCC1=O", "class-name": "Condition not met"}

Now for a further molecule.
Query string: Can `COc1ccc2c(c1)c1c(n2C(=O)c2ccc(Cl)cc2)CC(C)(C)CC1=O` be said to have Activity at or above 10%?
Result string: Condition met

---

tested on: Rattus norvegicus; test: In vivo inhibition of rat COX-2 assessed as decrease in plasma PGE2 level by EIA relative to control; format: functional
measure: inhibition (INH) (%)
One number for each entry, in %.

Solved cases (4 shown):
{"compound-string": "CS(=O)(=O)c1ccc2c(c1)c1c(n2S(=O)(=O)c2ccc(Cl)cc2)CCCC1", "measure": "inhibition (INH)", "unit-string": "%", "result-value": 88.2}
{"compound-string": "COc1ccc2c(c1)c1c(n2S(=O)(=O)c2ccc(Cl)cc2)CC(C)(C)CC1=O", "measure": "inhibition (INH)", "unit-string": "%", "result-value": 82.16}
{"compound-string": "CS(=O)(=O)c1ccc2c(c1)c1c(n2Cc2ccc(Cl)cc2)CCCC1=O", "measure": "inhibition (INH)", "unit-string": "%", "result-value": 86.39}
{"compound-string": "CS(=O)(=O)c1ccc2c(c1)c1c(n2S(=O)(=O)c2ccc(Cl)cc2)CCCC1=O", "measure": "inhibition (INH)", "unit-string": "%", "result-value": 84.11}

Okay, now this compound:
Query string: If you can, please state the reported inhibition (INH) value of `COc1ccc2c(c1)c(CC(=O)O)c(C)n2C(=O)c1ccc(Cl)cc1` .
Result string: 98.29
